A collection of compounds and their measured IC50
- Target or system: Induced myeloid leukemia cell differentiation protein Mcl-1 (Homo sapiens)
- Method summary: blockers of Bid binding to Mcl-1 – biochemical, TR-FRET, dose response (AID 1418)
- Protocol conditions: Mcl-1/Bid peptide binding, TR-FRET (europium/Dy647), 2 hr
The source made the active and inactive calls. How the calls were made is not given here.
Measured metric: IC50

- Compound: "c1ccc(CSc2nnc(-c3ccco3)c(-c3ccco3)n2)cc1"
  Measured metric: "IC50"
  Result: "10.2 µM"
- Compound: "Cc1n[nH]c(=S)c2nn(-c3ccccc3)c(C)c12"
  Measured metric: "IC50"
  Result: "> 54 µM (inactive)"
- Compound: "COc1ccc(C(=O)N(Cc2ccccc2)Cc2cc3cc4c(cc3[nH]c2=O)OCCO4)cc1"
  Measured metric: "IC50"
  Result: "> 54 µM (inactive)"
- Compound: "Cc1ccc(-n2c(SCC(=O)NCc3ccco3)nc3sc4c(c3c2=O)CC(C)(C)SC4)cc1"
  Measured metric: "IC50"
  Result: "> 54 µM (inactive)"
- Compound: "CCOC(=O)c1c(/N=C/C2C(=O)NC(=S)NC2=O)sc(C)c1C"
  Measured metric: "IC50"
  Result: "2.08 µM"
- Compound: "Cc1cc(N2CC(C)OC(C)C2)n2cc(-c3ccccc3)nc2n1 (centres undefined)"
  Measured metric: "IC50"
  Result: "> 54 µM (inactive)"
- Compound: "COc1cccc2c1nc(C)c1cc(C)oc12"
  Measured metric: "IC50"
  Result: "> 54 µM (inactive)"
- Compound: "Cc1nc(CSc2nc3[nH]ncc3c(=O)n2-c2ccccc2)cs1"
  Measured metric: "IC50"
  Result: "> 54 µM (inactive)"
- Compound: "O=C(c1cccc(Cl)c1)N1CCN(Cc2ccccc2F)CC1"
  Measured metric: "IC50"
  Result: "> 54 µM (inactive)"
- Compound: "CC(=O)Oc1ccc(C(c2ccc(OC(C)=O)cc2)c2ccccn2)cc1"
  Measured metric: "IC50"
  Result: "> 54 µM (inactive)"
- Compound: "O=C1Nc2ccc(Br)cc2/C1=C/C(=O)c1ccc2c(c1)OCO2"
  Measured metric: "IC50"
  Result: "1.93 µM"
- Compound: "COc1cc(S(=O)(=O)Nc2cccc(C)c2)ccc1NC(=O)c1ccncc1"
  Measured metric: "IC50"
  Result: "> 54 µM (inactive)"
- Compound: "CCCCN(Cc1cc2ccccc2[nH]c1=O)S(C)(=O)=O"
  Measured metric: "IC50"
  Result: "> 54 µM (inactive)"
- Compound: "CN(CC(=O)Nc1cccc(C#N)c1)Cc1ccc(Cl)cc1"
  Measured metric: "IC50"
  Result: "> 54 µM (inactive)"
- Compound: "CSc1nc(C)cc(OCC(=O)n2nc(C)cc2C)n1"
  Measured metric: "IC50"
  Result: "> 54 µM (inactive)"
- Compound: "CN1CCN(Cc2cccc(Oc3ccc(Cl)cc3)c2)CC1"
  Measured metric: "IC50"
  Result: "> 54 µM (inactive)"
- Compound: "CCOC(=O)C1CCCN(c2c(N3CCN(c4cccc(Cl)c4)CC3)c(=O)c2=O)C1 (centres undefined)"
  Measured metric: "IC50"
  Result: "> 54 µM (inactive)"
- Compound: "O=[N+]([O-])c1ccc(-c2nc3ccc([N+](=O)[O-])cc3[nH]2)cc1"
  Measured metric: "IC50"
  Result: "13 µM"
- Compound: "O=C(O)/C=C\\C(=O)N1CCc2ccccc21"
  Measured metric: "IC50"
  Result: "> 54 µM (inactive)"
- Compound: "O=C(Nc1ccc(Nc2ccncc2)cc1)c1ccc(Nc2ccnc3ccc([N+](=O)[O-])cc23)cc1[N+](=O)[O-]"
  Measured metric: "IC50"
  Result: "1.38 µM"
- Compound: "O=S(=O)(Nc1cccc(-c2cn3ccsc3n2)c1)c1ccc(F)cc1"
  Measured metric: "IC50"
  Result: "> 54 µM (inactive)"
- Compound: "C#CCn1cc(/C=N/NC(=O)COc2cccc3cccnc23)c2ccccc21"
  Measured metric: "IC50"
  Result: "0.86 µM"
- Compound: "COc1ccc(Cl)cc1C(Nc1cccnc1)c1ccc2cccnc2c1O (centres undefined)"
  Measured metric: "IC50"
  Result: "0.62 µM"
- Compound: "COc1ccc(C2c3c(C)nn(-c4ccccc4)c3NC(=O)N2c2ccccc2)cc1 (centres undefined)"
  Measured metric: "IC50"
  Result: "> 54 µM (inactive)"
- Compound: "O=C(CN1C(=O)COc2ccccc21)N(Cc1ccc2c(c1)OCO2)CC1CCCO1 (centres undefined)"
  Measured metric: "IC50"
  Result: "> 54 µM (inactive)"
- Compound: "Cc1cc2nc(-c3ccc(NC(=O)C(C)C)cc3)oc2cc1C"
  Measured metric: "IC50"
  Result: "3.02 µM"
- Compound: "CSc1nc(N(CCO)CCO)c2sc3nc(-c4ccco4)c4c(c3c2n1)CCC4"
  Measured metric: "IC50"
  Result: "> 54 µM (inactive)"
- Compound: "CC(=O)c1ccc(NC(=O)C(C)n2c3ccccc3c3nc(=O)cc(C)n32)cc1 (centres undefined)"
  Measured metric: "IC50"
  Result: "> 54 µM (inactive)"
- Compound: "COc1ccc(NC(=O)CN2C(=O)/C(=C3\\SC(=S)N(C4CCS(=O)(=O)C4)C3=O)c3ccccc32)cc1 (centres undefined)"
  Measured metric: "IC50"
  Result: "0.72 µM"
- Compound: "COc1ccc(CN2C(=O)c3cccnc3C2O)cc1 (centres undefined)"
  Measured metric: "IC50"
  Result: "0.71 µM"
- Compound: "CC(/C=N\\Nc1nnc2c(n1)[nH]c1c(C)cccc12)=C\\c1ccco1"
  Measured metric: "IC50"
  Result: "1.66 µM"
- Compound: "CCCCCCCCCCCCCCCC[n+]1cccc2ccccc21"
  Measured metric: "IC50"
  Result: "6.64 µM"
- Compound: "Cc1ccc(S(=O)(=O)CCNC(=O)Cc2ccccc2)cc1"
  Measured metric: "IC50"
  Result: "> 54 µM (inactive)"
- Compound: "Oc1c(Cl)cc(Cl)c(Cl)c1Cc1c(O)c(Cl)cc(Cl)c1Cl"
  Measured metric: "IC50"
  Result: "0.86 µM"
- Compound: "CC(=O)Cc1nsc(NC(=O)c2ccc(-c3cc(C(F)(F)F)ccc3Cl)o2)n1"
  Measured metric: "IC50"
  Result: "> 54 µM (inactive)"
- Compound: "CN(C(=O)c1ccc(C#N)cc1)c1nnc(-c2cnccn2)s1"
  Measured metric: "IC50"
  Result: "> 54 µM (inactive)"
- Compound: "O=[N+]([O-])c1cc(Cl)cc(/C=N/NC(=S)Nc2cc(S(=O)(=O)N3CCOCC3)ccc2Cl)c1O"
  Measured metric: "IC50"
  Result: "7.3 µM"
- Compound: "COc1ccc(OC)c(NC(=S)N(CCc2c(C)[nH]c3ccc(C)cc23)Cc2cccs2)c1"
  Measured metric: "IC50"
  Result: "> 54 µM (inactive)"
- Compound: "CSC1=N/C(=C\\c2ccccc2F)C(=O)S1"
  Measured metric: "IC50"
  Result: "> 54 µM (inactive)"
- Compound: "CC(=O)Cc1cc(O)c2ccccc2c1OC(=O)c1ccc(Br)cc1"
  Measured metric: "IC50"
  Result: "> 54 µM (inactive)"
- Compound: "O=C(CSc1nc(-c2ccccc2)cc(C(F)(F)F)n1)N1CCOCC1"
  Measured metric: "IC50"
  Result: "> 54 µM (inactive)"
- Compound: "Cc1nc(COC(=O)c2cc(O)c3ccccc3c2O)cs1"
  Measured metric: "IC50"
  Result: "0.9 µM"
- Compound: "COc1ccc(NC(=O)Nc2nnc(CC(=O)NCc3ccccc3)s2)cc1"
  Measured metric: "IC50"
  Result: "> 54 µM (inactive)"

Numbers sourced from PubChem BioAssay AID1418.
